- target of assay: PD-L1 (Homo sapiens)
- Construct: determine if they can specifically dimerize the extracellular domains of PD-L1
- method: PD-L1/PD-L1 dimerization biochemical protein-protein interaction assay (ALPHA)
- Assay type: binding
- measurement context: compound-induced PD-L1 dimerization, head prints '1 nM' (0.5 nM His-tagged PD-L1 and 0.5 nM FLAG-tagged PD-L1), read-out: AC50 PDL1 Dimer Alpha 1 nM
recorded endpoint: AC50 (nM)
Reply with just the number (in nM).

Form field: reported AC50 of `Cc1c(COc2cc(OCc3cncc(C#N)c3)c(CN[C@@](C)(CO)C(=O)O)cc2Cl)cccc1-c1cccc(-c2ccc(OCCNC[C@H]3CCC(=O)N3)cc2)c1C`
96.1

Form field: reported AC50 of `COc1nc(O[C@H]2CCc3c(-c4cccc(-c5ccc(CNC[C@@H]6CCC(=O)N6)cc5)c4Cl)cccc32)c(Cl)cc1CN1CC2(CCC(=O)N2)C1`
49

Form field: reported AC50 of `C[C@@](CO)(NCc1cc(Cl)c(O[C@H]2CCc3c(-c4cccc5c4CC[C@@H]5Oc4nc(OCc5cc(C#N)cc(C#N)c5)c(CN[C@@](C)(CO)C(=O)O)cc4Cl)cccc32)nc1OCc1cc(C#N)cc(C#N)c1)C(=O)O`
137

###

Let's look at some compounds and their measured pEC50.
- target of assay: PD-1/PD-L1 interaction (Homo sapiens)
- Construct: expressed in transfected cells; host or cells: CHO cells (aAPC-PD-L1) co-cultured with Jurkat cells overexpressing PD-1 and an NFAT-luciferase reporter
- Sequence (Q9NZQ7 19-290): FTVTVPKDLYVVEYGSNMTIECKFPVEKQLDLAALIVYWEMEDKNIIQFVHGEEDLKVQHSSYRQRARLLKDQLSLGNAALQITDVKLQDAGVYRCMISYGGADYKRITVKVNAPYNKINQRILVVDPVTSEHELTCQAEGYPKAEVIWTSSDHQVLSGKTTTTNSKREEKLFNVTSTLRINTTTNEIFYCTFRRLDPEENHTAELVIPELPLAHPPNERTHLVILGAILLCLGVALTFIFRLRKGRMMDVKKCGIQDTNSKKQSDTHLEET
- method: PD-1/PD-L1 NFAT reporter co-culture assay
- Format: cell-based
- measurement context: Jurkat PD-1 NFAT-luciferase cells co-cultured with aAPC-PD-L1 CHO cells, 6 hrs at 37° C.; read-out: EC50 NFAT Luciferase
# pEC50: negative log10 of molar concentration; output just the value

C[C@@](CO)(NCc1cc(Cl)c(O[C@H]2CCc3c(-c4cccc5c4CC[C@@H]5Oc4ccc(CN5CC[C@@H](O)C5)c(OCc5cncc(S(C)(=O)=O)c5)n4)cccc32)nc1OCc1cncc(S(C)(=O)=O)c1)C(=O)O : 6.22

Form field: reported pEC50 of `Cc1cc(OCc2cccc(-c3cccc(COc4cc(C)c(CNC[C@@H](O)CC(=O)O)c(OCc5cncc(C#N)c5)c4)c3C)c2C)cc(OCc2cncc(C#N)c2)c1CNC[C@@H](O)CC(=O)O`
5.92

Form field: reported pEC50 of `COc1nc(O[C@H]2CCc3c(-c4cccc(-c5ccc(OCCNC[C@@H](O)CC(=O)O)cc5)c4C)cccc32)ccc1CNCC(=O)O`
4.83

Form field: reported pEC50 of Cc1c(COc2cc(OCc3cncc(C#N)c3)c(CNC[C@@H](O)CC(=O)O)cc2Cl)cccc1-c1cccc(-c2ccc3c(c2)CC(NCCO)C3)c1C (some centres unmarked)
7.07

Form field: reported pEC50 of `COc1nc(OCc2cccc(-c3cccc(COc4ccc(CN5C[C@@H](O)CC5=O)c(OC)n4)c3C)c2C)ccc1CNC[C@@H](O)CC(=O)O`
4.72

###

- target of assay: PD-L1 (Homo sapiens, UniProt Q9NZQ7)
- Construct: determine if they can specifically dimerize the extracellular domains of PD-L1
- method: PD-L1/PD-L1 dimerization biochemical protein-protein interaction assay (ALPHA)
- Format: binding
- measurement context: compound-induced PD-L1 dimerization, head prints '1 nM' (0.5 nM His-tagged PD-L1 and 0.5 nM FLAG-tagged PD-L1), read-out: AC50 PDL1 Dimer Alpha 1 nM
recorded endpoint: AC50 (µM)
Reply with just the number (in µM).

Below, each entry is followed by its recorded AC50 result.
CC(C)(NCc1cc(Cl)c(O[C@H]2CCc3c(-c4cccc(-c5ccc(OCCN6CC[C@@H](O)C6)cc5)c4Cl)cccc32)nc1OCc1cncc(C#N)c1)C(=O)O : 0.017
COc1nc(-c2cc(F)cc(-c3cccc4c3CC[C@@H]4Oc3ccc(CNC[C@@H]4CCC(=O)N4)c(OCc4cncc(C#N)c4)n3)c2Cl)ccc1CNC[C@@H]1CCC(=O)N1 : 0.537
Cc1c(COc2cc(OCc3cncc(C#N)c3)c(CN[C@@](C)(CO)C(=O)O)cc2Cl)cccc1-c1cccc(-c2ccc(CN3CC4(CCC(=O)N4)C3)cc2)c1C : 0.0348
Cc1c(COc2cc(OCc3cncc(C#N)c3)c(CN[C@@](C)(CO)C(=O)O)cc2Cl)cccc1-c1cccc(-c2cccc([C@H](C)N)c2)c1C : 0.0865

// next item, AC50 requested
Form field: reported AC50 of `COc1nc(-c2cccc(-c3cccc4c3CC[C@@H]4Oc3nc(OC)c(CNC[C@@H]4CCC(=O)N4)cc3Br)c2Br)ccc1CNC[C@@H]1CCC(=O)N1`
0.111
